Target: T1, recombinant fibronectin domain ED-B (His)6 (human, UniProt P02751 1266-1356)
T1 construct: domain: ED-B; Produced by standard procedures; immobilised on ELISA plates or on the BIAcore chip; also called recombinant ED-B; human ED-B
Assay: SPR (BIAcore), ED-B immobilised on chip (about 100 RU), Fab in flow
ENDPOINT NAME: kon (M⁻¹ s⁻¹)
Quick reminder: number only, in M⁻¹ s⁻¹, skip the unit.

Data request: Find the measured kon of MOR03253 (Fab, V domains shown, Fab, H-CDR2 derivative) VH: QVQLVESGGGLVQPGGSLRLSCAASGFTFSSYGMHWVRQAPGKGLEWVSVISNMGFEIYYADSVKGRFTISRDNSKNTLYLQMNSLRAEDTAVYYCARNKVGFDVWGQGTLVTVSS VL: DIALTQPASVSGSPGQSITISCTGTSSDGGGYNTVSWYQQHPGKAPKLMIYYVHKRPSGVSNRFSGSKSGNTASLTISGLQAEDEADYYCQSWDLSVHQVVFGGGTKLTVLG and report it.
Data returned: 1.6e+06
